targetEntity: T1, Macaca fascicularis CD276 (Macaca fascicularis)
T1 construct: whole, on cells; also called cynomolgus monkey CD276; cynoCD276
experimentalProtocol: FACS on CHO-S-cynoCD276 cells
assayEndpoint: FACS MFI
I'd appreciate a reply containing only the number, no unit.

Completed entries (count: 2):
{"binder": "4-D5-B9-B11 (antibody, V domains shown, mouse monoclonal antibody (hybridoma)) VH: EIGGLVKPGGSLKFSCAASGFTFSSYAMSWVRQTPEKRLEWVATISGGGIYYPDSVKGRFTISRDNAKNTLYLQMSSLRSEDTAMYYCARQGSKGWDAMDYWGQGTSVTVSS VL: QIVLTQSPAIMSASPGEKVTMTCRASSSVSFMHWYQQKSGTSPKRWIYETSKLASGVPDRFSGSGSGTSYSLTISSMEAEDAATYYCQQWSSNPLTFGAGTKLELK", "assayEndpoint": "FACS MFI", "assayResult": 148000}
{"binder": "14-E7-G9-D4 (antibody, V domains shown, mouse monoclonal antibody (hybridoma)) VH: EVQLQQSGPELVKPGASVKMSCKASGYTFTNYIMHWVKQKPGQGLEWIGYINPYNDGIKYNEKFKGKATLTSDKSSSTAYMELSSLTSEDSAVYYCTRWGNYVFYYTMDYWGQGTSVTVSS VL: QIVLSQSPAILSASPGEKVTMTCRASSSVSYMHWYQQKPGSSPKPWIYATSNLASGVPARFSGSGSGTSYSLTISRMEAEDAATYYCQQWSGNPPLTFGAGTKLELK", "assayEndpoint": "FACS MFI", "assayResult": 61800}

// query FACS MFI value for entry 3-F2-E7-F9 (antibody, V domains shown, mouse monoclonal antibody (hybridoma)) VH: QVQLQQSGPELVRPGVSVKISCKGSGYTFTDYTMHWVKESHAKSLEWIGVISTYYGNTNYNQKFKGKATLTVDKSSSTAYMELAGLTSEDSAIYYCARASYGSGYGPYYWYFDVWGAGTTVTVSS VL: DIQMTQSPASLFASVGETVTITCRASEKIYSYLAWYFQKQGKSPQFLVYNANALAEGVPSRFSGSGSGTQFSLKINSLQPEDFGTYYCQHHYGTPVTFGAGSKLELK
35700
